Exercise: for every item that follows, state its recorded Rate of NBD-Toc transfer to SUV, Rate.
test method notes: FRET assay of NBD-Toc transfer from α-TTP variants to SUVs
Format: biochemical
experimental conditions: PC vesicles; 0.225 μM NBD-Toc, 2 μM α-TTP, 100 μM vesicles; room temperature
// return numeric value only (unit: s⁻¹, not printed)

Give the reported Rate of NBD-Toc transfer to SUV, Rate for this molecule. K217A: α-TTP mutant, surface Lys217 (helix A11) to Ala (protein, UniProt P49638 1-278, looked up, variant K217A) Alpha-tocopherol transfer …: MAEARSQPSAGPQLNALPDHSPLLQPGLAALRRRAREAGVPLAPLPLTDSFLLRFLRARDFDLDLAWRLLKNYYKWRAECPEISADLHPRSIIGLLKAGYHGVLRSRDPTGSKVLIYRIAHWDPKVFTAYDVFRVSLITSELIVQEVETQRNGIKAIFDLEGWQFSHAFQITPSVAKKIAAVLTDSFPLKVRGIHLINEPVIFHAVFSMIKPFLTEAIKERIHMHGNNYKQSLLQHFPDILPLEYGGEEFSMEDICQEWTNFIMKSEDYLSSISESIQ 0.130

# return recorded Rate of NBD-Toc transfer to SUV, Rate for input F165D/M209D: α-TTP double mutant (protein, UniProt P49638 1-278, looked up, variant F165D M209D) Alpha-tocopherol transfer …: MAEARSQPSAGPQLNALPDHSPLLQPGLAALRRRAREAGVPLAPLPLTDSFLLRFLRARDFDLDLAWRLLKNYYKWRAECPEISADLHPRSIIGLLKAGYHGVLRSRDPTGSKVLIYRIAHWDPKVFTAYDVFRVSLITSELIVQEVETQRNGIKAIFDLEGWQDSHAFQITPSVAKKIAAVLTDSFPLKVRGIHLINEPVIFHAVFSDIKPFLTEKIKERIHMHGNNYKQSLLQHFPDILPLEYGGEEFSMEDICQEWTNFIMKSEDYLSSISESIQ 0.034

Input F165D: α-TTP mutant, Phe165 to Asp (helix A8) (protein, UniProt P49638 1-278, looked up, variant F165D) Alpha-tocopherol transfer …: MAEARSQPSAGPQLNALPDHSPLLQPGLAALRRRAREAGVPLAPLPLTDSFLLRFLRARDFDLDLAWRLLKNYYKWRAECPEISADLHPRSIIGLLKAGYHGVLRSRDPTGSKVLIYRIAHWDPKVFTAYDVFRVSLITSELIVQEVETQRNGIKAIFDLEGWQDSHAFQITPSVAKKIAAVLTDSFPLKVRGIHLINEPVIFHAVFSMIKPFLTEKIKERIHMHGNNYKQSLLQHFPDILPLEYGGEEFSMEDICQEWTNFIMKSEDYLSSISESIQ , output reported Rate of NBD-Toc transfer to SUV, Rate. 0.013

Answer with reported Rate of NBD-Toc transfer to SUV, Rate of M264D: α-TTP mutant; surface methionine replaced with aspartate in a region predicted distant from the membrane plane (protein, UniProt P49638 1-278, looked up, variant M264D) Alpha-tocopherol transfer …: MAEARSQPSAGPQLNALPDHSPLLQPGLAALRRRAREAGVPLAPLPLTDSFLLRFLRARDFDLDLAWRLLKNYYKWRAECPEISADLHPRSIIGLLKAGYHGVLRSRDPTGSKVLIYRIAHWDPKVFTAYDVFRVSLITSELIVQEVETQRNGIKAIFDLEGWQFSHAFQITPSVAKKIAAVLTDSFPLKVRGIHLINEPVIFHAVFSMIKPFLTEKIKERIHMHGNNYKQSLLQHFPDILPLEYGGEEFSMEDICQEWTNFIDKSEDYLSSISESIQ 0.116
